B1: Azoarcus group I ribozyme (parent)
chain: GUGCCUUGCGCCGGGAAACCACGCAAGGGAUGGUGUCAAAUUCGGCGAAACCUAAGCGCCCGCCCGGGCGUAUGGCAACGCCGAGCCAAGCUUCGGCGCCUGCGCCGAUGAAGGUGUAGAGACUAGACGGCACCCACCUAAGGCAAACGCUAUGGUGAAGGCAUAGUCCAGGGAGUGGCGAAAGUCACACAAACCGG

- Variants of: B1
- Assay Explanation: reverse-splicing fitness (ratio to wild type); higher = more active; in vitro selection; Mg2+ level not given
Recorded measurements of reverse-splicing fitness, one per entry

Recorded results for 7 variants are shown here.
In [3]: df
Out[3]:
                        mutation_spec           outcome_measure  assay_value
0             A111G A120G C150A U176C  reverse-splicing fitness       0.0301
1        C82A A111C A145U C150G U176C  reverse-splicing fitness       0.0161
2       A111C A145U C150G C169A U176C  reverse-splicing fitness        0.011
3        C82U A111G A145G C150U C169G  reverse-splicing fitness      0.00979
4             A120C C150U C169G U176A  reverse-splicing fitness       0.0153
5  C82G A111C A120U C150U C169G U176C  reverse-splicing fitness      0.00301
6  C82G A111C A120G A145C C150G C169A  reverse-splicing fitness       0.0084

Please turn your attention to the following entry.
Request: Which value of reverse-splicing fitness has been reported for C82G A111U A120C A145U C150U C169A U176A in the records?
Response: 0.0178
